test system: Neutrophil; assay: Inhibition of immune complex-stimulated neutrophil oxidative metabolism in New Zealand white rabbit neutrophils assessed as ROS generation after 30 mins by lucigenin enhanced chemiluminescence assay; type: functional, cell-based; settings: Oryctolagus cuniculus, 0.5 h, read-out: IC50
Output Met for records whose IC50 is lower than 7 µM, Not met for records at or above 7 µM.

Worked cases, answers included:
| Given Smiles | Target Entity | Assigned Category |
| --- | --- | --- |
| O=c1oc2ccccc2cc1-c1ccc2c(c1)OCO2 | Neutrophil | Not met |
| O=c1oc2cc(O)ccc2cc1-c1ccc2c(c1)OCO2 | Neutrophil | Not met |
| O=c1oc2ccccc2cc1-c1ccccc1 | Neutrophil | Not met |

// query Hi there! Is IC50 for COC(=O)Oc1ccc2cc(-c3ccc4c(c3)OCO4)c(=O)oc2c1 below 7 µM, do you know?
// result Not met

// query Hi there! Is IC50 for O=c1oc2ccc(O)cc2cc1-c1ccc(O)cc1 below 7 µM, do you know?
// result Met

// query Problem: For the compound COC(=O)Oc1ccc(-c2cc3cc(OC(=O)OC)ccc3oc2=O)cc1 , is IC50 under 7 µM?
// result Met

// query Problem: For the compound O=c1oc2ccc(O)cc2cc1-c1cccc(O)c1 , is IC50 under 7 µM?
// result Met

// query Quick check: IC50 of COC(=O)Oc1ccc2oc(=O)c(-c3ccc(OC(=O)OC)c(OC(=O)OC)c3)cc2c1 under 7 µM?
// result Met

// query Lab note: IC50 threshold 7 µM. Does this compound come in strictly under it? O=c1oc2ccc(O)cc2cc1-c1ccccc1
// result Not met

// query Does the reported IC50 of COC(=O)Oc1ccc2oc(=O)c(-c3ccccc3)cc2c1 stay below 7 µM?
// result Not met

----------
Measured inhibition at 50 µM, listed per entry.
system: Neutrophil; assay: Inhibition of immune complex-stimulated neutrophil oxidative metabolism in New Zealand white rabbit neutrophils assessed as ROS generation at 50 uM after 30 mins by lucigenin enhanced chemiluminescence assay; format: functional; settings: Oryctolagus cuniculus, 0.5 h
Dear colleague, please return just the value in %, with no unit written.

Completed entries (count: 2):
| Given Smiles | inhibition at 50 µM, % |
| --- | --- |
| O=c1oc2ccc(O)cc2cc1-c1cccc(O)c1 | 94.1 |
| O=c1oc2ccc(O)cc2cc1-c1ccccc1O | 99.9 |

// query Specify measured inhibition at 50 µM for O=c1oc2cc(O)ccc2cc1-c1ccc2c(c1)OCO2 .
// result 79.4

// query Give recorded inhibition at 50 µM. COC(=O)Oc1ccc2oc(=O)c(-c3ccccc3)cc2c1
// result 80.5

// query Determine from records and report inhibition at 50 µM for O=c1oc2ccc(O)cc2cc1-c1ccc(O)cc1
// result 95.7

// query Give the value of inhibition at 50 µM reported for the following: COC(=O)Oc1ccc2oc(=O)c(-c3ccc(OC(=O)OC)c(OC(=O)OC)c3)cc2c1
// result 97.5

----------
Items are presented alongside their recorded viability at 0.5 h, 50 µM.
experiment: Cytotoxicity against New Zealand white rabbit neutrophils assessed as cell viability at 50 uM after 30 mins by trypan blue exclusion test; assay type: cell-based, Oryctolagus cuniculus, Neutrophil; details: read-out: Activity
Only the number, expressed in %, is required.

// query Return viability at 0.5 h, 50 µM for the following molecule: COC(=O)Oc1ccc2oc(=O)c(-c3ccccc3OC(=O)OC)cc2c1
// result 90.3

// query Write down viability at 0.5 h, 50 µM measured for item O=c1oc2ccc(O)cc2cc1-c1ccc2c(c1)OCO2
// result 93.8

// query Specify reported viability at 0.5 h, 50 µM for the molecule shown: COC(=O)Oc1ccc(-c2cc3cc(OC(=O)OC)c(OC(=O)OC)cc3oc2=O)cc1OC(=O)OC
// result 88.8

// query Return viability at 0.5 h, 50 µM (reported value) for this molecule: O=c1oc2cc(O)ccc2cc1-c1ccc2c(c1)OCO2
// result 94.3

// query Annotate the molecule COC(=O)Oc1cccc(-c2cc3cc(OC(=O)OC)ccc3oc2=O)c1 with its measured viability at 0.5 h, 50 µM.
// result 94

// query Identify the reported viability at 0.5 h, 50 µM for the following entry. O=c1oc2cc(O)c(O)cc2cc1-c1ccc(O)c(O)c1
// result 92

// query Recall and state the measured viability at 0.5 h, 50 µM for COC(=O)Oc1cc2cc(-c3ccc4c(c3)OCO4)c(=O)oc2cc1OC(=O)OC .
// result 95

FYI, the data here is from ChEMBL document CHEMBL1156679.
